Consider the following compounds and their measured ED50 readings.
Molecular target: Potassium-transporting ATPase subunit beta (Rattus norvegicus) (UniProt P18598)
Sequence (whole entry): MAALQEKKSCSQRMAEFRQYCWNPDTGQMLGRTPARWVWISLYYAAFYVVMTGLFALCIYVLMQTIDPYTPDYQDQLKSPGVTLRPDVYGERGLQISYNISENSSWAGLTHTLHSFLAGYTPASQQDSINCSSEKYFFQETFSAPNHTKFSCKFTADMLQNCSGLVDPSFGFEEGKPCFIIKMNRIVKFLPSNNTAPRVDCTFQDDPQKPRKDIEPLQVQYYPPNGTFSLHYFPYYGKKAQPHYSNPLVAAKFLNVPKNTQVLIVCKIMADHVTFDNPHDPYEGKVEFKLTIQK
Test: Inhibition of pentagastrin stimulated gastric acid secretion in anesthetized rat upon intravenous administration
Type: functional, organism-based
Conditions: Stomach
Express it in µmol/kg; write the number only.

- cpdSmiles: "COc1cccc2c(Nc3ccccc3C)c(C(C)=O)cnc12"
  ED50 (µmol/kg): 13.2
- cpdSmiles: "CCCC(=O)c1cnc2c(OC)cccc2c1Nc1ccccc1C"
  ED50 (µmol/kg): 2.62
- cpdSmiles: "CCC(=O)c1cnc2c(OC)cccc2c1Nc1ccccc1C"
  ED50 (µmol/kg): 1.39

# compound CCCC(=O)c1cnc2ccccc2c1Nc1ccccc1C ; its ED50 = 5.45
